# measurementDescription: Protein binding in rat brain assessed as unbound fraction by rapid equilibrium dialysis
# Assay type: ADME, tissue-based
valueKind: fraction unbound

# fraction unbound lookup, item COc1ccc(-c2cc(C(=O)N[C@H]3CCCN(C)C3)nn2C)c(Cl)c1
0.068

----------
# measurementDescription: Metabolic stability in mouse liver microsome assessed as intrinsic clearance preincubated for 60 mins followed by NADPH addition and measured after 60 mins by LC-MS/MS analysis
# Format: ADME
# conditionSummary: liver microsomes, time 120 min, read-out: CLH
valueKind: microsomal CLint

# microsomal CLint lookup, item COc1ccc(-c2cc(C(=O)N[C@H]3CCCN(C)C3)nn2C)c(Cl)c1
33.3 µL/min/mg

----------
# measurementDescription: Metabolic stability in dog liver microsome assessed as intrinsic clearance preincubated for 60 mins followed by NADPH addition and measured after 60 mins by LC-MS/MS analysis
# Format: ADME, Canis lupus familiaris
# conditionSummary: liver microsomes, time 120 min, read-out: CLH
valueKind: microsomal CLint (µL/min/mg)
Numbers only, in µL/min/mg.

# microsomal CLint lookup, item COc1ccc(-c2cc(C(=O)N[C@H]3CCCN(C)C3)nn2C)c(Cl)c1
27.7

----------
# measurementDescription: Intrinsic clearance in Sprague-Dawley rat at 0.5 mg/kg, iv by LC-MS/MS analysis
# Assay type: ADME, organism-based
# conditionSummary: in vivo
valueKind: CL (mL/min/kg)
Numbers only, in mL/min/kg.

Consider the reported CL for these compounds:
>>> reportedmeasurement("Cn1nc(C(=O)NCCN2CCCCC2)cc1-c1ccc(C(F)(F)F)cc1")
64.9
>>> reportedmeasurement("CN1CCC[C@@H](NC(=O)c2cc(-c3ccc(C(F)(F)F)cc3)n(C)n2)C1")
70
>>> reportedmeasurement("CN1CCC(NC(=O)c2cc(-c3ccc(C(F)(F)F)cc3)n(C)n2)C1 (racemic)")
47

# batch: return CL for each of the 4 compounds below
1. CN(C)C1(CNC(=O)c2cc(-c3ccc(C(F)(F)F)cc3)n(C)n2)CCCC1
2. CN1[C@@H]2CCC[C@H]1C[C@H](NC(=O)c1cc(-c3ccc(C(F)(F)F)cc3)n(C)n1)C2
3. CN1CCC(NC(=O)c2cc(-c3ccc(C(F)(F)F)cc3)n(C)n2)CC1
4. CN1CCC[C@H](NC(=O)c2cc(-c3ccc(C(F)(F)F)cc3)n(C)n2)C1

1: 81.8; 2: 20.4; 3: 41.5; 4: 40.5

----------
# measurementDescription: Half life in Sprague-Dawley rat at 10 mg/kg, po by LC-MS/MS analysis
# Type: ADME, organism-based
# conditionSummary: in vivo
valueKind: half-life (h)
Give bare numbers, in h.

# half-life lookup, item COc1ccc(-c2cc(C(=O)N[C@H]3CCCN(C)C3)nn2C)c(Cl)c1
5.9

----------
# measurementDescription: AUC (0 to infinity) in Sprague-Dawley rat at 0.5 mg/kg, iv by LC-MS/MS analysis
# Type: ADME, organism-based
# Parameters: dose 0.5 mg/kg, route iv
# conditionSummary: in vivo
valueKind: AUC(0-inf) (ng·h/mL)
One number for each entry, in ng·h/mL.

# AUC(0-inf) lookup, item COc1ccc(-c2cc(C(=O)N[C@H]3CCCN(C)C3)nn2C)c(Cl)c1
205

----------
# measurementDescription: Oral bioavailability in Sprague-Dawley rat at 10 mg/kg by LC-MS/MS analysis
# Type: ADME, organism-based
# conditionSummary: in vivo
valueKind: bioavailability (%)
Numbers only, in %.

# bioavailability lookup, item COc1ccc(-c2cc(C(=O)N[C@H]3CCCN(C)C3)nn2C)c(Cl)c1
11
